Quick list: IC50 per entry.
# system: UniProtKB Q14831
# Sequence (Q14831 35-922 isoform Q14831-2 limits assumed): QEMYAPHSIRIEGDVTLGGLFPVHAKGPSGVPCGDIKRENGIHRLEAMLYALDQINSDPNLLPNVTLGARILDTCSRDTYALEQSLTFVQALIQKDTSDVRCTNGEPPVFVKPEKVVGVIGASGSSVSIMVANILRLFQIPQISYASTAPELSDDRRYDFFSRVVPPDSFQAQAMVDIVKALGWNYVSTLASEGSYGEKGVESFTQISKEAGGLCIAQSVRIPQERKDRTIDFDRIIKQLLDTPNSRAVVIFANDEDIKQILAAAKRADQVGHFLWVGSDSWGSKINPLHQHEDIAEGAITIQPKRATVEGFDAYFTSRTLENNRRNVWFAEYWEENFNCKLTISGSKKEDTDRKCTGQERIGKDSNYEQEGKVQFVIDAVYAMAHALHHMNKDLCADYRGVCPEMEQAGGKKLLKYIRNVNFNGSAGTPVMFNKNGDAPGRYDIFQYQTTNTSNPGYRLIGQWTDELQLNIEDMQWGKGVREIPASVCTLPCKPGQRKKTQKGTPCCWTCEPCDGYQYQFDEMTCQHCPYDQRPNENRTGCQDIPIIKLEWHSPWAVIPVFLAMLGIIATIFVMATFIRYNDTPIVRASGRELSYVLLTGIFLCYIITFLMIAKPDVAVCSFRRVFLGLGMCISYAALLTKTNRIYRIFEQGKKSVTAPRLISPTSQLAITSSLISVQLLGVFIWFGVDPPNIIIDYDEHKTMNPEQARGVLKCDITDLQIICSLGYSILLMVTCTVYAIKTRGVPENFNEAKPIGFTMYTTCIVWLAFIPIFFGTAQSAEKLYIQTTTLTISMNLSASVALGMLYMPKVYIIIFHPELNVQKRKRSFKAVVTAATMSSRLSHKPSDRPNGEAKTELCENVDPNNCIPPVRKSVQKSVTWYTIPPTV
# protocol_description: mGlu7 assay on HEK-expressing human mGlu7: fluorescent cell based-Ca2+ mobilization assay (FLIPR), inhibition of EC80 L-AP4 response
# measurement_context: HEK-293 cells expressing hmGlu7, EC80 L-AP4; mean of at least three independent experiments in duplicate; read-out: Ca^2+ Flux (mean IC50)

# count of solved cases: 3
Identify the reported IC50 for the following entry. COc1cnc(-n2ncc3c(C)c(-c4ccc(C)cc4C)c(C)n3c2=O)nc1 100 to 1000 nM

Identify the reported IC50 for the following entry. Cc1c(-c2cccc3c2CCN3C(C)C)cc2cnn(-c3ncccn3)c(=O)n12 < 100 nM

Identify the reported IC50 for the following entry. Cc1c(OC2CC2)cccc1-c1c(C)c2cnn(-c3ccccn3)c(=O)n2c1C 100 to 1000 nM

Next:
Identify the reported IC50 for the following entry. COc1cccc(-c2cc3cnn(-c4ncccn4)c(=O)n3c2C)c1Cl < 100 nM

Identify the reported IC50 for the following entry. Cc1c(OC(F)F)cccc1-c1cc2cnn(-c3ncccn3)c(=O)n2c1C < 100 nM

Identify the reported IC50 for the following entry. COc1cccc(-c2c(C)c3cnn(-c4ncccn4)c(=O)n3c2C)c1F 100 to 1000 nM

Identify the reported IC50 for the following entry. CCOC(=O)c1cnc(-n2ncc3c(C)c(-c4cccc(OC5CC5)c4)c(C)n3c2=O)nc1 1000 to 10000 nM

Identify the reported IC50 for the following entry. Cc1c(-c2cccc(OC3CC3)c2)c(C)n2c(=O)n(-c3ncc(N4CCC(O)C4)cn3)ncc12 (centres unmarked) 100 to 1000 nM

Identify the reported IC50 for the following entry. Cc1c(OC2CC2)cccc1-c1c(C)c2cnn(-c3ccc(F)cn3)c(=O)n2c1C 100 to 1000 nM

Identify the reported IC50 for the following entry. CCn1ncc2c(C)c(-c3cccc4c3CCN4C)c(C)n2c1=O 100 to 1000 nM

Identify the reported IC50 for the following entry. Cc1c(-c2cccc3c2CCN3C)cc2cnn(-c3ncccn3)c(=O)n12 < 100 nM

Identify the reported IC50 for the following entry. Cc1c(-c2cccc(OC3CC3)c2)c(C)n2c(=O)n(-c3ncccc3F)ncc12 100 to 1000 nM

Identify the reported IC50 for the following entry. Cc1c(OC(F)F)cccc1-c1cc2cnn(-c3ccccn3)c(=O)n2c1C < 100 nM

Identify the reported IC50 for the following entry. COc1ccc(-c2c(C)c3cnn(-c4ccccn4)c(=O)n3c2C)cc1 100 to 1000 nM

Identify the reported IC50 for the following entry. Cc1c(-c2ccnc(OC(F)F)c2)cc2cnn(-c3ncccn3)c(=O)n12 < 100 nM

Identify the reported IC50 for the following entry. Cc1c(-c2cccc(OC(F)F)c2)cc2cnn(-c3ncccn3)c(=O)n12 < 100 nM

Identify the reported IC50 for the following entry. COc1ccc(F)c(-c2c(C)c3cnn(-c4ncccn4)c(=O)n3c2C)c1 < 100 nM
